Molecular target: T1, histidine-tagged human Siglec-7 (NovoProtein) (human, UniProt Q9Y286 19-353)
T1 construct: Bought protein; also called recombinant human Siglec-7; recombinant Siglec-7; not shown: histidine tag
T1 sequence (Q9Y286 19-353 limits assumed): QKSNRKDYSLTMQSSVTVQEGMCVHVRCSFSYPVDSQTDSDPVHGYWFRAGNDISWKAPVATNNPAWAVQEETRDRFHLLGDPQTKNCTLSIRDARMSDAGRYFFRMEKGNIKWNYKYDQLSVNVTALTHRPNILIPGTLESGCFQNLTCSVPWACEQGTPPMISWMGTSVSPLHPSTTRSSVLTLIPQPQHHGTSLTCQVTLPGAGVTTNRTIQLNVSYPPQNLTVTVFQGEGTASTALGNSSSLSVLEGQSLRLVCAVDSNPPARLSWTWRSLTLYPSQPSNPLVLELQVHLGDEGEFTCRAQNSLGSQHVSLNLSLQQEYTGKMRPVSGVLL
Test: BLI, antibody captured
observable: Kd

• S7AB-H8.33 (antibody, V domains shown) VH: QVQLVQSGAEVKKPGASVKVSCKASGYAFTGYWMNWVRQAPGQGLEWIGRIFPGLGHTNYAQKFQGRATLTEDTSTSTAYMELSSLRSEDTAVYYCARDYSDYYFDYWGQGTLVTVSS VL: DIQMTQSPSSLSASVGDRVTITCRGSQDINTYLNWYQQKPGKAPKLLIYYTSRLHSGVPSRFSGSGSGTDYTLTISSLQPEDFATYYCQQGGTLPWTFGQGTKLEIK = 0.326 nM
• S7AB-H8.37 (antibody, V domains shown) VH: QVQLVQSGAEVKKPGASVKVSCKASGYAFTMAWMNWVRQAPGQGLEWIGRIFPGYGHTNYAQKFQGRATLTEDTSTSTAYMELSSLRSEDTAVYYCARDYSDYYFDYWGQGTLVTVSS VL: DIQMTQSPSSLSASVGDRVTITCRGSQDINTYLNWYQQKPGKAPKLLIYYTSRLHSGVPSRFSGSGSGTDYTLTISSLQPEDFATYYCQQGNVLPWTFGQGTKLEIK = 0.135 nM
• S7AB-H8.9 (antibody, V domains shown) VH: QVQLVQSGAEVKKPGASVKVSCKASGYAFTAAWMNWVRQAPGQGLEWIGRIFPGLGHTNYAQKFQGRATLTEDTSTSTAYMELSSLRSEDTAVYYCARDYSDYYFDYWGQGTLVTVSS VL: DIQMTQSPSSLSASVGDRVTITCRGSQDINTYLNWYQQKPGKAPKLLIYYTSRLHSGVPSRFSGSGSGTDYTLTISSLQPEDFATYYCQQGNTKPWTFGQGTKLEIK = 0.527 nM
• S7AB-H8.1 (antibody, V domains shown) VH: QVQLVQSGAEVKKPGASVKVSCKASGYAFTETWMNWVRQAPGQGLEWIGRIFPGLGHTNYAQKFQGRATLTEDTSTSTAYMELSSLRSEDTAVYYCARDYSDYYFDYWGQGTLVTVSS VL: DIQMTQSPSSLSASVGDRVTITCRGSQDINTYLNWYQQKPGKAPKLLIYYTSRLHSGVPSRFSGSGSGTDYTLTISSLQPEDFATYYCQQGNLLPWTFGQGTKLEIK = 0.574 nM
• S7AB-H8.40 (antibody, V domains shown) VH: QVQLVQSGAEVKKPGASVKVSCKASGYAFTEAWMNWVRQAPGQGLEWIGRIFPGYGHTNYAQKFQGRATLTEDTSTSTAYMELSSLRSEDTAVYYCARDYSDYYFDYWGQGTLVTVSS VL: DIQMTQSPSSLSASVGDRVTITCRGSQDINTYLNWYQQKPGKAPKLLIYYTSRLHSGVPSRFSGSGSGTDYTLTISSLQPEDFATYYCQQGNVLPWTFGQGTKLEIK = 0.425 nM
• S7AB-H8.12 (antibody, V domains shown) VH: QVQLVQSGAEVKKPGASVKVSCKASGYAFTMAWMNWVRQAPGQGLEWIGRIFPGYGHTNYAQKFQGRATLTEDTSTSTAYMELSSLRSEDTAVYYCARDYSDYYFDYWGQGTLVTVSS VL: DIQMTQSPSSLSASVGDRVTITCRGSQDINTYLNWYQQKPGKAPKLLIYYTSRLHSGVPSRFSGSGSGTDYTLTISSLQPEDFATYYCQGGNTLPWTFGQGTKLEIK = 46.3 nM
• S7AB-H8.11 (antibody, V domains shown) VH: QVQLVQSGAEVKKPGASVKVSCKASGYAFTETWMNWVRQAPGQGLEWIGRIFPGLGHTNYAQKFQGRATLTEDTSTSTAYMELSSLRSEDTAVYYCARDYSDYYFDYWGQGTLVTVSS VL: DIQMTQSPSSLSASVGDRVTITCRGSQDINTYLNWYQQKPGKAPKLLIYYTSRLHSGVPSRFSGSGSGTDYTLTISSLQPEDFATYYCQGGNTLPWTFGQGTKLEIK = 124 nM
• S7AB-H8.38 (antibody, V domains shown) VH: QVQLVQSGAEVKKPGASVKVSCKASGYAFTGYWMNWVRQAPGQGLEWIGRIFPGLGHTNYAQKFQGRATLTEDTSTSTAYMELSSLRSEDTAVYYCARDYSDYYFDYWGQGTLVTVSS VL: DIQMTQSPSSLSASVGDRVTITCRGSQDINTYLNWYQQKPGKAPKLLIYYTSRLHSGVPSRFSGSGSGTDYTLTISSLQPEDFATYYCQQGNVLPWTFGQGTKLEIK = 0.324 nM
• S7AB-H8.21 (antibody, V domains shown) VH: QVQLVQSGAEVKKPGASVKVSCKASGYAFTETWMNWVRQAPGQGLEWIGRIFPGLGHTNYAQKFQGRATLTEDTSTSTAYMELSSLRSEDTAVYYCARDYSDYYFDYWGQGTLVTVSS VL: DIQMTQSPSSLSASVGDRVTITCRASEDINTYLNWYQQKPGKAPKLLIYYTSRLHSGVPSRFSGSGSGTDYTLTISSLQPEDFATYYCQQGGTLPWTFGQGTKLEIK = 0.936 nM
• S7AB-H8.2 (antibody, V domains shown) VH: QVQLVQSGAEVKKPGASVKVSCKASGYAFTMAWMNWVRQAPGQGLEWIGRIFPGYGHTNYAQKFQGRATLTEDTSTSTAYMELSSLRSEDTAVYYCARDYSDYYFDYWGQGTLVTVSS VL: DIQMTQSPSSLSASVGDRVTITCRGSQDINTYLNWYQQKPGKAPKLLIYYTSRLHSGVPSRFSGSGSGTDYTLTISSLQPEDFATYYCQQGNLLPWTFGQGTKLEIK = 0.227 nM
